B1: Pistol ribozyme (parent)
chain: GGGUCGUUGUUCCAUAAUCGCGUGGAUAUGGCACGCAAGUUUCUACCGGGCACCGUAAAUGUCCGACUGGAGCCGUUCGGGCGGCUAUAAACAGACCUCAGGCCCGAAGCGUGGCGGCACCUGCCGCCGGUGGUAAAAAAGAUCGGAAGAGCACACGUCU

# Variants of: B1
# Procedure details: aptazyme ON/OFF ratio, guanine; higher = stronger switching; co-transcriptional cleavage with and without guanine
// reported aptazyme ON/OFF ratio for each item listed
Could you respond with only the numeric value?

U7G U8A G9C U10C U11C C12U | 1.03
U8G G9A U10C C12A | 1.25
G9A U11C C13G | 1.11
U7A U8A G9U U11A C12A C13A | 1.04
U7G U8G G9C U10C C12U C13G | 1.36

Next item in the queue.
Please give the measured aptazyme ON/OFF ratio for this variant: U7G U8A G9A U10A U11C C12G C13U
1.1

Provenance of the data: the RNAGym collection of RNA variant scans (doi:10.1021/acssynbio.7b00057)
